// data source = PubChem BioAssay AID2052

METHOD_SUMMARY: murine CD8 T cell vesicle adhesion modulation – mouse 2C CD8+ T cells, flow cytometry, primary screen (AID 2052);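 note: values below 100% mean blocked vesicle binding to the CD8+ T cells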
PARTICULARS: 2C CD8+ T cell-vesicle binding, at 7 µM, stronger effect = lower value
Screen size: about 330,000 compounds; about 220 (0.067%) were called active. Shown is part of a subset that was picked to be rich in actives.
Parameter: response (vesicle binding). Scope: all listed entries.
MEASUREMENT_TYPE: response (vesicle binding)

[
  {
    "MOLECULE": "CN(CC(=O)NCCc1ccc(S(N)(=O)=O)cc1)CC(=O)Nc1ccc(Cl)cc1",
    "MEASUREMENT_TYPE": "response (vesicle binding)",
    "RESULT_VALUE": "1090% (inactive)"
  },
  {
    "MOLECULE": "O=C(Nc1cccn(Cc2c(Cl)cccc2Cl)c1=O)c1ccc(Cl)cc1",
    "MEASUREMENT_TYPE": "response (vesicle binding)",
    "RESULT_VALUE": "379% (inactive)"
  },
  {
    "MOLECULE": "CC(C)OP(=O)(OC(C)C)C(Nc1ccccc1)c1cccc([N+](=O)[O-])c1 (stereo not given)",
    "MEASUREMENT_TYPE": "response (vesicle binding)",
    "RESULT_VALUE": "684% (inactive)"
  },
  {
    "MOLECULE": "Cc1c(NC(=S)Nc2ccccc2)c(=O)n(-c2ccccc2)n1C",
    "MEASUREMENT_TYPE": "response (vesicle binding)",
    "RESULT_VALUE": "297% (inactive)"
  },
  {
    "MOLECULE": "Cc1ccc(-c2nnc(C)c(N3CC(C)OC(C)C3)n2)cc1 (stereo not given)",
    "MEASUREMENT_TYPE": "response (vesicle binding)",
    "RESULT_VALUE": "123% (inactive)"
  }
]
